Test system: K4 kissing-loop RNA reporter;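 note: bound reporter read as fluorescence of individual clusters on recovered sequencing chips by microscopy, with normalized cluster intensities fitted with a binding model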
protocol-text: apparent KD of K4 kissing-loop reporter; higher = weaker reporter binding
measurement-conditions: Eterna round: R107; input ligand: FMN 200 uM
Class field: derived from apparent KD of K4 kissing-loop reporter; ranges 1: < 100 nM; 2: ≥ 100 nM and < 200 nM; 3: ≥ 200 nM

Study these solved cases before continuing.
UAGUCCUAGUGAUCGUUAUCACGUGGUGGGCGAGGACCGGUACGGCCGCCACUCGACUAUGCAGUGAUGUUGCAAUCCGGACAAU [Exclusion - Tryptophan A (Freestyle 15)]: 3
AAGCAGUCACUCGCAGCCAUCGAAGAUGGUCGAGGACCGGUACGGCCGCCACUCGGAGUGAUGUUCCGAAGACUGCAAAAUAAAA: 3
UUUUUCGCGUUUGAUACCAGCAGAGUUGUUCUUGUCUGGAACAUGAGUGAUGUUCAUGUCUGCCCUUGGCAGCAAACGGGAGAAG [KL-XTheo-B12]: 2
GGGCAUCAGGCUGAUACCAGUGAUAAAGGAUAAGAGACAGGGAGUGAUGUUCCCUUUACCCACCCUUGGCAGCAGUUUAAGUUUG [Exclusion Theophylline B GF 16]: 1
GAUGAUCGCGCGGCCGCCACUGGUCAGUGAUGUUGACAUUAAUGCGCCGAGUAGUAACGGCGCAACAGGACCGGGCGCGAUGUAG [#11 K4 Tryptophan B Same State]: 2

Please classify: GGGAGAAGAGCGGCCGCCACUCAGAAAGAAGAAGAAUAUAGUGAUGUUAUAUAGGAAAGGAAGAAGAGGACCGGGCUUAAGAGGG [#18 K4 Tryptophan B Same State]
2

Can you check AAGUCAUAUAGAAGGAGCGUGUUUUUUAAUUUGUUUUCAUGAUCGAGUGAUGUUCGAUAUACACAGGUAGGUCGCUGUAUAAUAA [hbob_SS_Arginine_B_2t142] next?
2

Can you check AAAGUUGAAAGUGAUACCAGACGAGUGAAGGGAAGUAAUUAAUUUGGAGUGAUGUUCCGCGUCCCUUGGCAGCAUUUUGUAAUUU [Exclusion Theophylline B GF 24] next?
2

Can you check GGGAACUCUUACGAUACCAGCCGGAGUGAUGUUCCGCGCUUGGACGUAGUAACCCGCACCGGCCCUUGGCAGCGUGGAUCUUAUA [Esbedi] next?
1
